experimental protocol: NCI Yeast Anticancer Drug Screen. Data for the mlh1 rad18 strain (AID 175)
test settings: S. cerevisiae mlh1 rad18 strain growth inhibition; at 50.0 µM (retest, dose inferred, filed as 5.0); active compounds read high
Method: Growth inhibition of yeast strains with defined genetic alterations is measured as a screen for potential anti-cancer activity. Selected strains with alterations in DNA damage repair or cell cycle control were exposed to compounds and growth inhibition was measured relative to vehicle treated controls. The strain used in this assay is mlh1 rad18
About 79,000 compounds went through this panel and 15% of them were active in at least one assay; those are over-represented in the sample as a whole.
measurement label: growth inhibition (%)

>>> result_number("Cc1c(NC(=O)CCl)c(=O)oc2c(C)c3occc(=O)c3cc12")
94
>>> result_number("COc1ccc(C2(O)c3ccccc3C(=O)C2c2ccccn2)cc1 (configuration not stated)")
4
>>> result_number("CCCCCCCCCCCCSC(=NCC)NCC")
99
>>> result_number("CC1CCN(c2cc(-c3cc4ccccc4o3)oc(=O)c2C#N)CC1")
3
>>> result_number("C=CCOC(=O)OCCCO")
-1
>>> result_number("CCOC(=O)C1C(c2cccc(OC)c2O)c2cc3c(cc2OC1(C)N1CCCC1)OCO3 (configuration not stated)")
27
>>> result_number("NNc1c(F)c(F)c(-c2c(F)c(F)c(NN)c(F)c2F)c(F)c1F")
59
>>> result_number("CC1(C)CCC(C)(C)c2cc(C(=O)Nc3ccc(C(=O)O)cc3)ccc21")
97
>>> result_number("NCCC(N)P(=O)(O)O (configuration not stated)")
-111
>>> result_number("COc1cc(C)cc2c(-c3c(O)cc(O)c4c3C[C@H](C)N[C@H]4C)cc(-c3cc(-c4c(O)cc(O)c5c4C[C@H](C)N[C@H]5C)c4cc(C)cc(OC)c4c3O)c(O)c12")
27
>>> result_number("c1ccc2c(c1)-c1cccc3cncc-2c13")
52
>>> result_number("CS(=O)(=O)C(=Cc1ccccc1Cl)S(C)(=O)=O")
62
>>> result_number("CCOC(=O)/C(=C\\c1cccc(Br)c1)C(C)=O")
100
>>> result_number("O=C1C=CC(Nc2cccc([N+](=O)[O-])c2)C1Nc1cccc([N+](=O)[O-])c1 (configuration not stated)")
-19
>>> result_number("Oc1cc2c(cc1C(c1ccc(Cl)cc1)N1CCOCC1)OCO2 (configuration not stated)")
99
>>> result_number("O=[N+]([O-])c1ccc(/C=C/[n+]2ccc3ccccc3c2)o1")
97
>>> result_number("CC(C)Cn1cnc2c(SCc3cccc(F)c3)nc(N)nc21")
45
>>> result_number("CC(C)C1=CC[C@H]2C(=C1)CC[C@@H]1[C@]2(C)CCC[C@@]1(C)C(=O)O")
90
>>> result_number("O=C1c2ccccc2/C=C\\C(c2ccccc2)=N/N1c1ccccc1Cl")
48
>>> result_number("Nc1ccc(C(=O)N/C(=C\\c2ccc3c(c2)OCO3)c2nc3ccccc3s2)cc1")
98
>>> result_number("Nc1ncnc2c1c(-c1ccccc1)cn2-c1ccc(I)cc1")
-2
>>> result_number("O=[N+]([O-])c1ccc(N=C(Cl)C(Cl)(c2ccccc2)c2ccccc2)cc1")
97

----------
The entries below come with measured growth inhibition values attached.
experimental protocol: NCI Yeast Anticancer Drug Screen. Data for the rad50 strain (AID 155);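 also: 0% = growth of vehicle-only cultures of the same strain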
test settings: S. cerevisiae rad50 strain growth inhibition; at 50.0 µM; active compounds read high
About 79,000 compounds went through this panel and 15% of them were active in at least one assay; those are over-represented in the sample as a whole.
measurement label: growth inhibition (%)

>>> result_number("O=S1(=O)C(Br)=Cc2ccccc21")
99.3
>>> result_number("CC(=O)Oc1ccc(-c2ccccc2)cc1Br")
93.6
>>> result_number("CC1COC(c2cn[nH]c2C(N)=O)C1O (configuration not stated)")
-0.5
>>> result_number("OC1CC2OC2C1O (configuration not stated)")
-6.25
>>> result_number("CCCCCCc1ccc(O)cc1O")
99.5
>>> result_number("Cc1cc(O)c(O)cc1C/C=C/c1ccccc1")
53.2
>>> result_number("COc1ccc(C(=O)OC(=O)c2ccc(OC)cc2)cc1")
71.4
>>> result_number("COc1cc(/C=C\\C(=O)c2cccc(O)c(=O)c2)cc(OC)c1OC")
69.1
>>> result_number("Cc1cccc2c1CC1(C2)Cc2c(C)cccc2C1=O (configuration not stated)")
36.9
>>> result_number("NCCNC[Si](c1ccccc1)(c1ccccc1)c1ccccc1")
7.6
>>> result_number("CC(=Nc1ccc(S(=O)(=O)c2ccc(N=C(C)N3CCCCC3)cc2)cc1)N1CCCCC1")
-0.05
>>> result_number("COc1cccc2c1C(=O)c1c(O)c3c(c(O)c1C2=O)C[C@@](O)(/C(C)=N/NC(N)=S)C[C@@H]3OC1CC(N)C(O)C(C)O1 (some centres not stated)")
95.5
